Cited source: the NIST ThermoML archive (doi:10.1021/je050402s)

Test: xn = mol fraction of the nth substance listed
Settings: 288.15 K; 100.5 kPa; Liquid; x1 = 0.85
reported.property: mass density (kg/m3)

{"molecule": "CCC(=O)OCc1ccccc1 [benzyl propanoate] + CCO", "unit.text": "kg/m3", "mass density": 1022.5}
{"molecule": "CCOC(=O)CC(C)=O [ethyl 3-oxobutanoate] + CCO", "unit.text": "kg/m3", "mass density": 1015.85}
{"molecule": "CCOC(=O)c1ccccc1O [ethyl 2-hydroxybenzoate] + CCO", "unit.text": "kg/m3", "mass density": 1112.93}
{"molecule": "CC(=O)OCc1ccccc1 [benzyl ethanoate] + CCO", "unit.text": "kg/m3", "mass density": 1042.59}
{"molecule": "COC(=O)c1ccccc1 [methyl benzoate] + CCO", "unit.text": "kg/m3", "mass density": 1071.11}
{"molecule": "CCOC(=O)CC(C)C [ethyl 3-methylbutanoate] + CCO", "unit.text": "kg/m3", "mass density": 864.44}

====

Test: xn = mol fraction of the nth substance listed
Conditions: 308.15 K; 100.5 kPa; Liquid; Capillary tube (Ostwald / Ubbelohde) method; x1 = 0.15
reported.property: viscosity (mPa·s)

{"molecule": "CCOC(=O)CC(C)C [ethyl 3-methylbutanoate] + CCO", "unit.text": "mPa·s", "viscosity": 0.75}
{"molecule": "CC(=O)OCc1ccccc1 [benzyl ethanoate] + CCO", "unit.text": "mPa·s", "viscosity": 0.942}
{"molecule": "COC(=O)c1ccccc1 [methyl benzoate] + CCO", "unit.text": "mPa·s", "viscosity": 0.924}
{"molecule": "CCC(=O)OCc1ccccc1 [benzyl propanoate] + CCO", "unit.text": "mPa·s", "viscosity": 0.976}
{"molecule": "CCOC(=O)CC(C)=O [ethyl 3-oxobutanoate] + CCO", "unit.text": "mPa·s", "viscosity": 0.832}

====

Details: 308.15 K; 100.5 kPa; Liquid
reported.property: mass density (kg/m3)

{"compound": "CCO [ethanol]", "mass density [kg/m3]": 776.31}
{"compound": "CCOC(=O)CC(C)C [ethyl 3-methylbutanoate]", "mass density [kg/m3]": 849.83}
{"compound": "CCOC(=O)c1ccccc1O [ethyl 2-hydroxybenzoate]", "mass density [kg/m3]": 1115.29}
{"compound": "CC(=O)OCc1ccccc1 [benzyl ethanoate]", "mass density [kg/m3]": 1041.39}
{"compound": "COC(=O)c1ccccc1 [methyl benzoate]", "mass density [kg/m3]": 1074.34}
{"compound": "CCOC(=O)CC(C)=O [ethyl 3-oxobutanoate]", "mass density [kg/m3]": 1013}
{"compound": "CCC(=O)OCc1ccccc1 [benzyl propanoate]", "mass density [kg/m3]": 1018.38}

====

Assay: xn = mol fraction of the nth substance listed
Details: 318.15 K; 100.5 kPa; Liquid; x1 = 0.1
reported.property: mass density (kg/m3)

{"compound": "CCC(=O)OCc1ccccc1 [benzyl propanoate] + CCO", "mass density (kg/m3)": 825.3}
{"compound": "CC(=O)OCc1ccccc1 [benzyl ethanoate] + CCO", "mass density (kg/m3)": 825.63}
{"compound": "CCOC(=O)c1ccccc1O [ethyl 2-hydroxybenzoate] + CCO", "mass density (kg/m3)": 843.56}
{"compound": "CCOC(=O)CC(C)C [ethyl 3-methylbutanoate] + CCO", "mass density (kg/m3)": 783.04}
{"compound": "COC(=O)c1ccccc1 [methyl benzoate] + CCO", "mass density (kg/m3)": 826.58}
{"compound": "CCOC(=O)CC(C)=O [ethyl 3-oxobutanoate] + CCO", "mass density (kg/m3)": 813.32}
